- System: H3K9me2 in HCT116 cells
- protocol: HCT116 H3K9me2 in-cell western assay
- Assay type: cell-based
- measurement conditions: Homo sapiens, HCT-116, 72 h, HCT116 cells, 72 hours incubation; read-out: H3K9me2 ICW IC50
measurement kind: IC50

// `CNc1cc(C2CC2)nc(Nc2cc3c(c(C4=CCNCCC4)c2)OCC3)n1` : IC50 value = < 0.1 µM

Reported IC50 ( `CNc1cc(C)nc(Nc2cc3c(c(OCCCN4CCCC4)c2)OCCN3)n1` ) = 0.5 to 2 µM

Lab note: `CNc1cc(C)nc(Nc2cc3c(c(C4=CCNCCC4)c2)OCCO3)n1` gave IC50 of < 0.1 µM

Field IC50 (entry `[2H]Cc1cc(NCC([2H])([2H])[2H])nc(Nc2cc3c(c(C4=CCN(C)CCC4)c2F)OCC3)n1` ) reads < 0.1 µM

====

- System: H3K9me2 in HCT116 cells
- protocol: HCT116 H3K9me2 in-cell western assay
- Assay type: cell-based
- measurement conditions: Homo sapiens, HCT-116, 72 h, HCT116 cells, 72 hours incubation; read-out: H3K9me2 ICW IC50
pIC50: −log10 of the molar value.
measurement kind: pIC50

Test item CNc1cc(C)nc(Nc2cc3c(c(C4=CCN(CCOC)CCC4)c2)OC(F)(F)O3)n1 [Compound 158] ; H3K9me2 in HCT116 cells; reported pIC50 was < 5.70

The molecule Cc1cc(NC2CCC2)nc(Nc2cc3c(c(OCCCN4CCCC4)c2)OCC3)n1 [Compound 119] on H3K9me2 in HCT116 cells: pIC50 was 5.70 to 6.30

Record CNc1cc(C)nc(Nc2cc3c(c(C4=CCN(C)CCC4)c2)OC(F)(F)O3)n1 [Compound 156] ; system H3K9me2 in HCT116 cells; pIC50 = 6.30 to 7.00

Fill in: H3K9me2 in HCT116 cells pIC50 for [2H]C([2H])([2H])CNc1cc(C)nc(Nc2cc3c(c(C4=CCN(C)CCC4)c2)OCCO3)n1 [Compound 272] = 6.30 to 7.00

pIC50 for H3K9me2 in HCT116 cells with input CCc1c(C)nc(Nc2cc3c(c(C4=CCNCCC4)c2F)OCC3)nc1NC [Compound 212] equals > 7.00

Assay H3K9me2 in HCT116 cells, sample CNc1cc(C)nc(Nc2cc3c(c(C4=CCNCCC4)c2F)OCC3(C)C)n1 [Compound 178] , pIC50 read: > 7.00

pIC50 value, target or system H3K9me2 in HCT116 cells, for CNc1cc(C(C)C)nc(Nc2cc3c(c(C4=CCNCCC4)c2)OCC3)n1 [Compound 326] : > 7.00

Observed pIC50 on H3K9me2 in HCT116 cells, entry CNc1cc(C)nc(Nc2cc3c(c([C@H]4C[C@H]5CNC[C@H]5C4)c2)OCO3)n1 [Compound 342] , equals 5.70 to 6.30

# CNc1cc(C)nc(Nc2cc3c(c(C4=CCNCC(O)C4)c2F)OCC3)n1 (stereo not drawn) [Compound 179] with H3K9me2 in HCT116 cells: pIC50 is > 7.00

Field pIC50 (H3K9me2 in HCT116 cells), entry CNc1cc(C)nc(Nc2cc3c(c(C4=CCNCCC4)c2)OCCO3)c1 [Compound 144] : 6.30 to 7.00

Form: item [2H]Cc1nc(Nc2cc3c(c(C4=CCN(C)CCC4)c2F)OCC3)nc(NC([2H])([2H])[2H])c1F [Compound 219] ; test system H3K9me2 in HCT116 cells; pIC50: > 7.00

Entry CNc1cc(C)nc(Nc2cc3c(c(C4=CC(C)NCCC4)c2F)OCC3)n1 (stereo not drawn) [Compound 206] , H3K9me2 in HCT116 cells data, pIC50 value: > 7.00

Observed pIC50, H3K9me2 in HCT116 cells, CNc1cc(C)nc(Nc2cc3c(c(C4=CCNC(C)CC4)c2Cl)OCC3)n1 (single isomer, unassigned) [Compound 374] : > 7.00

Reading of pIC50 for [2H]Cc1cc(NC)nc(Nc2cc3c(c(C4=CCN(C)CCC4)c2)OCCO3)n1 [Compound 266] with H3K9me2 in HCT116 cells: > 7.00

Param item: CNc1cc(C)nc(Nc2cc3c(c(C4=CCNC[C@@H](O)C4)c2F)OC[C@@H]3C)n1 (stereo in doubt) [Compound 422] ; param system: H3K9me2 in HCT116 cells; output pIC50: > 7.00

Value sought: pIC50, system H3K9me2 in HCT116 cells, item CNc1cc(C)nc(Nc2cc3c(c(C4CCCNCC4)c2)OCO3)n1 (stereo not drawn) [Compound 343] . Result: 6.30 to 7.00

Bench note, H3K9me2 in HCT116 cells: CNc1cc(C)nc(Nc2cc3c(c([C@H]4CC[C@H](N)CC4)c2)OCC3)n1 [Compound 153] , pIC50 reads < 5.70

Observed pIC50 on H3K9me2 in HCT116 cells, entry CNc1cc(C)nc(Nc2cc3c(c(C4CCCN(C)CC4)c2)OCC3)n1 (stereo not drawn) [Compound 107] , equals 6.30 to 7.00

Form field pIC50 for item CNc1cc(C)nc(Nc2cc3c(c(N4C[C@H]5CNC[C@H]5C4)c2)OCCC3)n1 [Compound 338] on H3K9me2 in HCT116 cells: 6.30 to 7.00

Let me check: COCCCNc1cc(C)nc(Nc2cc3c(c(C4=CCNCCC4)c2)OCC3)n1 [Compound 310] , system H3K9me2 in HCT116 cells, measured pIC50 is 6.30 to 7.00

H3K9me2 in HCT116 cells pIC50 of CNc1cc(C)nc(Nc2cc3c(c(C4=CCNCCC4)c2Cl)OCC3)n1 [Compound 189] is > 7.00

Param item: CNc1cc(C)nc(Nc2cc3c(c(C4CCNCC4)c2)OCC3)n1 [Compound 149] ; param system: H3K9me2 in HCT116 cells; output pIC50: < 5.70

The value of pIC50 recorded for CNc1cc(C)nc(Nc2cc3c(c(C4=CCNCC(O)C4)c2F)OCC3)n1 (single isomer, unassigned) [Compound 373] when tested on H3K9me2 in HCT116 cells reads > 7.00

Simply: CNc1cc(C)nc(Nc2cc3c(c(C4=CCNCCC4)c2F)OCC32CC2)n1 [Compound 172] , H3K9me2 in HCT116 cells, pIC50 = > 7.00

Noted pIC50 for CNc1cc(C)nc(Nc2cc3c(c(C4=CCN(C)CCC4)c2)OCCO3)c1 [Compound 146] , tested on H3K9me2 in HCT116 cells: 6.30 to 7.00

Record CNc1cc(C)nc(Nc2c(F)c3c(c(C4=CCN(C)CCC4)c2F)OCC3)n1 [Compound 186] / H3K9me2 in HCT116 cells, pIC50 recorded as 6.30 to 7.00

Observed pIC50, H3K9me2 in HCT116 cells, CNc1cc(C)nc(Nc2cc3c(c(C4=CCNCCC4)c2)CCO3)n1 [Compound 332] : 6.30 to 7.00

Lab note: molecule Cc1cc(NC2CCC2)nc(Nc2cc3c(c(C4=CCN(C)CCC4)c2)OCC3)n1 [Compound 318] tested on H3K9me2 in HCT116 cells; recorded pIC50 was 6.30 to 7.00

# value of pIC50, H3K9me2 in HCT116 cells, item CNc1cc(C)nc(Nc2cc3c(c(C4=CCN(C)CCC4)c2F)OCC3)n1 [Compound 280] = > 7.00

CNc1cc(C)nc(Nc2cc3c(c(C4=CCN(C)CCC4)c2)OCC3)n1 [Compound 111] tested on H3K9me2 in HCT116 cells gave pIC50: > 7.00

The observed pIC50 for CNc1cc(Nc2cc3c(c(C4=CCNCCC4)c2F)OCCC3)nc(C)c1F [Compound 243] when tested with H3K9me2 in HCT116 cells stands at > 7.00

Known value: H3K9me2 in HCT116 cells pIC50 of the molecule CNc1cc(C)nc(Nc2cc3c(c(C4=CCN(C)CCC4)c2F)OCCC3(F)F)n1 [Compound 173] equals > 7.00

Reported H3K9me2 in HCT116 cells pIC50 for item [2H]Cc1nc(Nc2cc3c(c(C4=CCNCCC4)c2F)OCC3)nc(NC([2H])([2H])[2H])c1F [Compound 225] was > 7.00
